# Measurement protocol: chemical genetic growth profiling, strain panel (AID 1159580);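 note: tested at 20 µM; growth read once vehicle control cultures reached saturation at 30 °C; 1 = growth at the plate median or of vehicle wells; lower values mean less growth of the strain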
# Cond: S. cerevisiae deletion strains, growth OD, locus YJL166W, strain qcr8, stronger effect = lower value
The campaign covered roughly 5,500 compounds. About 2,000 (36%) were called active. Roughly 18% stayed inconclusive and do not appear here. This is one part of the list.
Give measured normalized growth for each item. Keep answers brief.
Answers are plain numbers.

Example cases with answers are listed next.
input: Bench note: what normalized growth did CS(=O)(=O)OCCCCOS(C)(=O)=O show?
output: 1.01

input: Bench note: what normalized growth did COc1ccc(C[C@H](N)C(=O)N[C@@H]2[C@@H](CO)OC(n3cnc4c(N(C)C)ncnc43)[C@@H]2O)cc1 (some centres undefined) show?
output: 0.979

input: Bench note: what normalized growth did CCC(COC(=O)c1cc(OC)c(OC)c(OC)c1)(c1ccccc1)N(C)C (centres undefined) show?
output: 0.969

input: Bench note: what normalized growth did O=C1CN(/N=C\c2ccc([N+](=O)[O-])o2)C(=O)N1 show?
output: 0.964

input: Bench note: what normalized growth did CC[C@]1(O)CC2CN(CCc3c([nH]c4ccccc34)[C@@](C(=O)OC)(c3cc4c(cc3OC)N(C=O)[C@H]3[C@@](O)(C(=O)OC)[C@H](OC(C)=O)[C@]5(CC)C=CCN6CC[C@]43[C@@H]65)C2)C1 (some centres undefined) show?
output: 0.998

input: Bench note: what normalized growth did O=C(O)CCCCC1SCC2NC(=O)NC21 (centres undefined) show?
output: 0.965

Kindly give each listed record's normalized growth.
1. NC(=O)N/N=C\c1ccc([N+](=O)[O-])o1
2. Cc1ccc(C(C)C)cc2c(C)ccc1-2
3. CC(=O)OCC(=O)[C@@]12OC(C)(C)O[C@@H]1CC1C3C[C@H](F)C4=CC(=O)C=C[C@]4(C)[C@@]3(F)[C@@H](O)C[C@@]12C (some centres undefined)

output:
0.984
0.994
1.04

---

# Measurement protocol: chemical genetic growth profiling, strain panel (AID 1159580);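 note: tested at 20 µM; growth read once vehicle control cultures reached saturation at 30 °C; 1 = growth at the plate median or of vehicle wells; lower values mean less growth of the strain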
# Cond: S. cerevisiae deletion strains, growth OD, locus YFR028C, strain CDC14, stronger effect = lower value
About 2,000 (36%) of roughly 5,500 compounds were called active. About 18% were inconclusive and are not listed. This is one part of the list.
Give measured normalized growth for each item. Keep answers brief.
Answers are plain numbers.

Example cases with answers are listed next.
input: Bench note: what normalized growth did CCOC(=O)NC(=S)NC12CC3CC(CC(C3)C1)C2 show?
output: 0.97

input: Bench note: what normalized growth did CCc1cc2c(cc1-c1csc(C/C(N)=N\O)n1)C(C)(C)CCC2(C)C show?
output: 0.973

input: Bench note: what normalized growth did CSc1cccc(N2C(=O)CC(c3c(Cl)cccc3Cl)CC2=O)c1 show?
output: 0.986

Kindly give each listed record's normalized growth.
1. Cc1nc(C(F)(F)F)c(C(=O)O/N=C(/N)c2ccc(Cl)cc2)s1
2. CC1(C)C/C(=N/Nc2ccc(C(F)(F)F)cc2)c2cc(C(C)(C)C)c(O)c(O)c2O1

output:
0.98
0.98

---

Give measured normalized growth for each item. Keep answers brief.
# Measurement protocol: chemical genetic growth profiling, strain panel (AID 1159580);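 note: tested at 20 µM; growth read once vehicle control cultures reached saturation at 30 °C; 1 = growth at the plate median or of vehicle wells; lower values mean less growth of the strain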
# Cond: S. cerevisiae deletion strains, growth OD, locus YML032C, strain rad52, stronger effect = lower value
Screen size: about 5,500 compounds; about 2,000 (36%) were called active. About 18% were inconclusive and are not listed. The list shows a part of the results.
Numbers only.

input: Bench note: what normalized growth did O=C(O)CCC(=O)c1ccc(-c2ccccc2)cc1 show?
output: 0.938

input: Bench note: what normalized growth did O=C(/C=C/c1ccc(O)c(O)c1)O[C@@H]1C[C@](O)(C(=O)O)C[C@@H](O)[C@H]1O show?
output: 0.999

input: Bench note: what normalized growth did Nc1nccs1 show?
output: 0.984

input: Bench note: what normalized growth did Oc1ccc(/C=C/c2cc(O)cc(O)c2)cc1 show?
output: 0.938

input: Bench note: what normalized growth did Nc1ccc(S(=O)(=O)Nc2nccs2)cc1 show?
output: 0.98

input: Bench note: what normalized growth did CCCN(CCC)C(=O)C(CCC(=O)O)NC(=O)c1ccccc1 (stereo not drawn) show?
output: 0.982

input: Bench note: what normalized growth did CC[C@@H](C(=O)O)[C@@H]1O[C@@H]([C@@H](C)[C@H](O)[C@H](C)C(=O)[C@H](CC)[C@H]2O[C@]3(C=C[C@@H](O)[C@]4(CC[C@@](C)(C5CC[C@](O)(CC)[C@H](C)O5)O4)O3)[C@H](C)C[C@@H]2C)[C@@H](C)C[C@H]1C (stereo partly drawn) show?
output: 0.586

Others:
input: Bench note: what normalized growth did CC[C@@H](C(=O)[C@@H](C)[C@@H](O)[C@H](C)[C@@H]1O[C@@H]([C@@H](CC)C(=O)O)CC[C@@H]1C)[C@H]1OC2(C=C[C@@H](O)[C@]3(CC[C@@](C)([C@H]4CC[C@](O)(CC)[C@H](C)O4)O3)O2)[C@H](C)C[C@@H]1C (stereo partly drawn) show?
output: 0.882
